Data origin: patent US5756423A

System: yellow nutsedge (Cyperus esculentus) (CYPES)
method: post-emergent herbicidal test, yellow nutsedge
Type: in vivo
recordedConditions: Cyperus, post-emergence, post-emergent, 1.0 kg/ha (*), 17-21 days after application; read-out: CYPES percent control
Catalogue of pest or weed control at 1000 g/ha readings, one per entry.
Respond with the bare value in %.

Take a look at these entries with their results.
| compound | readoutUnit | pest or weed control at 1000 g/ha |
| --- | --- | --- |
| CC1CCCC1NCC(P(=O)(O)O)P(=O)(O)O (stereo not drawn) [Compound 50] | % | 5 |
| C=CCN(CC)CC(P(=O)(O)O)P(=O)(O)O [Compound 40] | % | 10 |
| O=P(O)(O)C(Cn1ccnc1)P(=O)(O)O [Compound 64] | % | 30 |
| C=C(C)CNCC(P(=O)(O)O)P(=O)(O)O [Compound 34] | % | 15 |
| CC(NCC(P(=O)(O)O)P(=O)(O)O)c1ccc(F)cc1 (stereo not drawn) [Compound 44] | % | 60 |
| CCCCCN(CCC)CC(P(=O)(O)O)P(=O)(O)O [Compound 62] | % | 10 |

Enter recorded pest or weed control at 1000 g/ha with yellow nutsedge (Cyperus esculentus) (CYPES) for CC[C@H](C)NCC(P(=O)(O)O)P(=O)(O)O [Compound 56] here. 60

Please look at CCCCNCC(P(=O)(O)O)P(=O)(O)O [Compound 14] and tell me its recorded pest or weed control at 1000 g/ha on yellow nutsedge (Cyperus esculentus) (CYPES). 15

Enter measured pest or weed control at 1000 g/ha, system yellow nutsedge (Cyperus esculentus) (CYPES), for the compound shown: CCCN(CCC(C)C)CC(P(=O)(O)O)P(=O)(O)O [Compound 61] 10

// fetch pest or weed control at 1000 g/ha for CC1CCCN(CC(P(=O)(O)O)P(=O)(O)O)C1 (stereo not drawn) [Compound 21] ; system: yellow nutsedge (Cyperus esculentus) (CYPES) 5

Please report pest or weed control at 1000 g/ha with yellow nutsedge (Cyperus esculentus) (CYPES) for item CCCCCCN(CCC)CC(P(=O)(O)O)P(=O)(O)O [Compound 59] . 5

# assay system yellow nutsedge (Cyperus esculentus) (CYPES): give pest or weed control at 1000 g/ha of CC(O)CNCC(P(=O)(O)O)P(=O)(O)O (stereo not drawn) [Compound 66] 60

Please indicate recorded pest or weed control at 1000 g/ha of Cc1cn(CC(P(=O)(O)O)P(=O)(O)O)cn1 [Compound 58] measured with yellow nutsedge (Cyperus esculentus) (CYPES). 10
